The values you see were collected from ChEMBL document CHEMBL1201862.

Tested on: PC-3
Test: NCI tumour cell line growth inhibition, 48 h
Active and inactive are the calls of the source. No stated cut-off is given here; in the data, active = GI50 up to about 1.1 µM and inactive = higher.
Use one of these outcomes when replying: 1 for active, -1 for inactive

Field: outcome | Entry: CCCCOC(=O)NC(c1ccccc1)C(O)C(=O)OC1C[C@@]2(O)C(OC(=O)c3ccccc3)C3[C@](C)(C(=O)[C@H](OC(C)=O)C(=C1C)C2(C)C)[C@@H](O)C[C@H]1OC[C@@]31OC(C)=O (stereo partly drawn)
1

Others:
Field: outcome | Entry: O=CNc1ccc2c(c1)C(=O)c1ccccc1-2
-1

Field: outcome | Entry: C[C@@H]1[C@@H](c2ccccc2)O[B-](c2ccccc2)(c2ccccc2)N1C
-1

###

Item-by-item account of GI50
Tested on: MOLT-4
Assay: NCI tumour cell line growth inhibition, 48 h
Active and inactive are the calls of the source. No stated cut-off is given here; in the data, active = GI50 up to about 1.1 µM and inactive = higher. Where a SMILES comes first, the peptide text is derived from it. The star is where a group is joined. Boc = CC(C)(C)OC(=O)*; OSu = O=C1CCC(=O)N1O*

Please review the following examples before continuing.
Could you please provide reported GI50 for CC(C)(C)OC(=O)NC(Cc1ccc(O)cc1)C(=O)NC(CCCCN)C(=O)NC(Cc1ccc(O)cc1)C(=O)NC(CCCCN)C(=O)ON1C(=O)CCC1=O (stereo not drawn) (Boc-YKYK-OSu; configuration not given here) ? Thanks!
> 100 µM (inactive)

Could you please provide reported GI50 for N#CC(/C(=N/NC(=N)N)C(=O)Nc1ccccc1[N+](=O)[O-])c1nc(-c2ccc([N+](=O)[O-])cc2)cs1 (stereo not drawn) ? Thanks!
> 100 µM (inactive)

Could you please provide reported GI50 for O=C(CC(=O)Nc1cccc(Cl)c1)NNCC(=O)Nc1nnc(-c2ccccc2)s1 ? Thanks!
34.9 µM (inactive)

Could you please provide reported GI50 for COc1c(C)c(OC)c(C(=O)CC(C)C)c(OC)c1C ? Thanks!
43.7 µM (inactive)

Could you please provide reported GI50 for C1CN2CCN3CCN4CCN1[PH]243 ? Thanks!
> 100 µM (inactive)

Others:
Could you please provide reported GI50 for CCOc1ccc(NC(=O)/C(Cc2nc3ccccc3nc2O)=N\O)cc1 ? Thanks!
> 100 µM (inactive)

Could you please provide reported GI50 for CN1CCC2(CC1)C(=O)N(N1CCCCCC1)C(=O)N2c1ccccc1 ? Thanks!
> 100 µM (inactive)

Could you please provide reported GI50 for Cn1c2c(c3ccccc31)C1CCCCC1C1C(=O)NC(=O)C21 (stereo not drawn) ? Thanks!
21.8 µM (inactive)

Could you please provide reported GI50 for CCCCCCCCCCCCCCCCCCNc1nc(=O)n(C2CC(O)C(COP(=O)(O)O)O2)cc1F (stereo not drawn) ? Thanks!
36 µM (inactive)

Could you please provide reported GI50 for CN(C)Cc1cc(/C=C/C(=O)c2ccc(Cl)c(Cl)c2)cc(CN(C)C)c1O ? Thanks!
10.1 µM (inactive)

Could you please provide reported GI50 for CCOC(=O)C1S/C(=N\c2ccc(Cl)cc2)N=C1C (stereo not drawn) ? Thanks!
16.7 µM (inactive)

Could you please provide reported GI50 for C=CCNC(=S)N/C=C1\C(=O)Oc2ccccc2C1=O ? Thanks!
> 100 µM (inactive)

Could you please provide reported GI50 for CCN1C[C@]2(C)CC[C@H](OCc3ccccc3)C34C5C[C@@H]6CC[C@](O)(C(C[C@@H]32)C14)C5[C@H]6OCc1ccccc1 (stereo partly drawn) ? Thanks!
16.7 µM (inactive)
